System: SRPK1
Conditions: concentration: 1 μM, replicates: in singlicate; n = 1;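 further: KINOMEscan kinase panel screen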
Observed Property: %Inh
# answer = value followed by unit

// below: answered compounds
COc1cc2ncnc(Nc3ccc4nc(-c5ccccc5)[nH]c4c3)c2cc1OC.Cl [GW282450] = 3%
Cc1cccc(-c2nc(-c3ccc(S(C)(=O)=O)cc3)sc2-c2ccnc(NCCc3ccccc3)c2)c1 = 0%
Cc1ccc(NC(=O)Nc2cccc(Cl)c2)cc1-c1ccc(C(=O)Nc2ccncc2)cc1 [GSK1398468] = 0%

Req: Need %Inh of CN(C)CCN(C)C(=O)c1cc(-c2ccncc2)c(-c2ccc(Cl)c(O)c2)o1.Cl.Cl [SB-710397] , thanks.
Resp: 0%

Req: Could you do the same for Nc1nc(-c2nccs2)c(-c2ccnc3ccccc23)s1 [GW693542] , please?
Resp: 20%

Req: Could you do the same for Cl.c1ccc(-c2n[nH]cc2-c2ccnc(-c3ccc(CN4CCOCC4)cc3)c2)nc1 [GW776245] , please?
Resp: 0%

Req: Could you do the same for "Cn1ccc2ncnc(Oc3ccc(Nc4nc5ccccc5[nH]4)cc3)c21" , please?
Resp: 0%

Req: Could you do the same for Fc1cc(Cl)ccc1Nc1ccnc2cc(-c3ccc(CN4CCCCC4)o3)ccc12 [GW560116] , please?
Resp: 0%

Req: Could you do the same for O=C(Nc1ccc2c(c1)OCO2)NC1CCN(c2ccnc(Nc3ccc(F)cc3)n2)C1 (stereo not drawn) [GSK1379724] , please?
Resp: 0%

Req: Could you do the same for C[C@@H]1CCCCN1c1cc(-c2ccc3c(N)n[nH]c3c2)nc(N)n1 [GSK2258759] , please?
Resp: 0%

Req: Could you do the same for Cc1nnc(-c2ccc3occ(-c4ccc(S(C)=O)cc4)c3c2)[nH]1 (stereo not drawn) , please?
Resp: 27%

----------
Tested on: RSK4(Kin.Dom.2-C-terminal)
Construct: gene RPS6KA6
Conditions: concentration: 1 μM, replicates: in singlicate; n = 1
Observed Property: %Inh
# answer = value followed by unit

Cc1csc(-c2nc(Nc3ccncc3)c3ccccc3n2)n1 = 40%
Cc1c(Cn2ccn3c(=O)cc(N4CCOCC4)nc23)cccc1C(F)(F)F = 11%
COC(=O)c1c(-c2ccccc2)c2cc(OC)ccc2c(=O)n1Cc1ccccc1 = 27%

Req: Need %Inh of "COC(=O)c1c(-c2ccccc2)c2cc(C(=O)O)ccc2c(=O)n1Cc1ccccc1" , thanks.
Resp: 5%

----------
Tested on: AURKB
Conditions: concentration: 1 μM, replicates: in singlicate; n = 1
Observed Property: %Inh (%)
// return numeric value only (unit: %, not printed)

// below: answered compounds
COc1cc2ncn(-c3cc(OCC4CCCO4)c(C(N)=O)s3)c2cc1OC (centres unmarked) = 1
Cc1ccccc1-n1cnc2c(N)ncnc21 = 0
COc1ccccc1-c1ccc2c(NC(=O)C3CC3)n[nH]c2n1 = 0

Req: Quick check: %Inh on AURKB, item "O=C(O)COc1ncnc2cc(-c3ccc4[nH]ncc4c3)sc12" ?
Resp: 28

Req: Could you do the same for "O=S(=O)(c1ccc(-c2ccnc3[nH]ccc23)cc1)N1CCCC1" , please?
Resp: 20

----------
Test system: HIPK2
Conditions: concentration: 1 μM, replicates: in singlicate; n = 1
Is %Inh at least 8%? Then satisfied. If not, not satisfied.

CCn1c(-c2ccccn2)nc2cnccc21 [SB-736398] = satisfied
COc1ccc(Nc2nccc(NCCNC(=O)Nc3ccccc3F)n2)cc1 [GSK1379901] = not satisfied
Cn1ccc2ncnc(Oc3ccc(NC(=O)Nc4ccccc4)cc3)c21 = satisfied
COc1ccc(Nc2nccc(-c3cccc(NC(=O)c4cc5cc(F)ccc5[nH]4)c3)n2)cc1 [GSK1229782] = satisfied
CCn1c(-c2cccnc2O)nc2cnccc21 [SB-736715] = not satisfied

Req: Would you say Fc1cc(Cl)ccc1Nc1ccnc2cc(I)ccc12 [GW551191] shows %Inh at minimum 8%?
Resp: not satisfied

Req: Could you do the same for Cc1c(O)cccc1Nc1ccnc2ccc(C(F)(F)F)cc12.Cl [GW466413] , please?
Resp: not satisfied

Req: Could you do the same for "CS(=O)(=O)c1ccc(-c2c(-c3ncn[nH]3)sc(N3CCOCC3)c2C#N)cc1" , please?
Resp: satisfied
